- measurement_description: yeast display, Sf9 membrane polyspecificity reagent, FACS + sequencing; frameworks hold sequencing errors
endpoint: polyreactivity (PSR sort gate)

| ordered_residues | polyreactivity (PSR sort gate) |
| --- | --- |
| QVQLVESWGGLVQAGGNLRLSCAASGFIFTRYAMGWYRPAPGTERELVAAISTSGDRTYYADSVKGRFTISRDNAKNTVYLQMNSLKPEDTAVYYCAVVRPRSVVRYDYWGQGTQVTVSS | high polyreactivity |
| QVQLVASAGGLVQAGGSLRFSCAASGRSFKRYTMGWYRQAPGKERELVAAITKRADRTNYADSVKGRFTISRDNAKNTVYLQMNSLKPEDTAVYYCYADGQNDLPSNGYISYKYDYWGQGTQVTVSS | low polyreactivity |
| QVQLVESGGGLVQAGGSHRLSCAASGSTFRVYAMGWYRQAPGKERELVATISWGGGRTYYADSVKGRFTISRDNAKNTVYLQMNSLKPEDTAVYYCAADQRWTTDQPTAGDYWGQGTQVTVSS | low polyreactivity |
| QVQLVESGGGLVQAGGSLRLSCAASGRIYDRYDMVWYRQAPVKERELVAAISSGGSTYYADSVKGRFTISRDNAKNTVYLQMNSLKPEDTAVNNCAADRRSKYDYWGQGTQVTVSA | low polyreactivity |

Problem: GET /values?readout=polyreactivity (PSR sort gate)&item= QVQLVESGGGLVQAGGSLRLSCAASASTFYSYTMGWSRQAPGKERELVAAISRSGGRTYYADSVKGRFTISRDNAKNTVYLQMNSLKPEDTAVYYCAARWLGVDDYEYWGQGTQVTVSS
Result: high polyreactivity
